Ref: patent US20240391923A1

biological target: MAT2A recombinant protein (Homo sapiens, UniProt P31153); test: MAT2A inhibitory activity (malachite green colorimetric enzyme assay); assay type: biochemical; settings: read-out: MAT2A Inhibition
Sequence (P31153 whole entry): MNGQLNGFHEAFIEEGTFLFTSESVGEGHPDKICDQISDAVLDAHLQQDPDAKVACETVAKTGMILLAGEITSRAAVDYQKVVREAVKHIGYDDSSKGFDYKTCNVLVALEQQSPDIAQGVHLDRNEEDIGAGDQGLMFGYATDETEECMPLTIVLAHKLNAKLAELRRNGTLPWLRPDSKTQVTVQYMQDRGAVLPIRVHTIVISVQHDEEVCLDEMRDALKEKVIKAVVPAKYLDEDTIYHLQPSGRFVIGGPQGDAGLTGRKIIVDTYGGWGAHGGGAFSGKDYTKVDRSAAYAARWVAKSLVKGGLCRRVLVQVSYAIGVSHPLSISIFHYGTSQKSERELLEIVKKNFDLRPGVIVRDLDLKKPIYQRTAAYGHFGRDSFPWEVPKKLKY
pIC50: −log10 of the molar value.
readout.label: pIC50

The cases that follow already have their pIC50 on record.
* Cn1cc2c(n1)c(=O)n(-c1cccc3[nH]ncc13)c1nc(C(F)(F)F)c(C#N)cc21 [Compound B281] | 7.52
* O=c1c2nccnc2c2ccc(Cl)cc2n1-c1cccnc1 [Compound B50] | 6.31
* Cn1cc2c(n1)c(=O)n(-c1ccc3cn[nH]c3c1)c1cc(Cl)ccc21 [Compound B57] | 7.27

1: COc1ccc(-n2c(=O)c3nn(C)cc3c3ccc(Cl)cc32)cc1 [Compound B185]
2: Cn1cc2c(n1)c(=O)n(-c1cccc3[nH]nc(Cl)c13)c1cc(Cl)c(F)cc21 [Compound B412]
3: Cn1cc2c(n1)c(=O)n(-c1ccc(OC(F)F)cc1)c1nc(C(F)(F)F)ccc21 [Compound B188]
4: Cc1ncccc1-n1c(=O)c2[nH]ncc2c2ccc(C3CC3)nc21 [Compound B95]
Incoming: # rank_down: sort by pIC50, max first Please respond by ranking the labels in the order requested.
Outgoing: 2, 4, 3, 1
(2: 8.19, 4: 7.32, 3: 7.00, 1: 6.42)

----------
experiment: Pharmacokinetic test in mice (IV and PO); assay type: in vivo; conditions: mouse, plasma; BALB/c mice, PO 10 mg/kg; read-out: T½ (converted)
readout.label: half-life (h)

• O=c1c2nn(C(F)F)cc2c2cc(F)c(C3CC3)nc2n1-c1cccnc1C1CC1 = 8

P: CCn1nc2c(=O)n(-c3cccnc3)c3cc(Cl)ccc3c2c1C
Q: Cc1c2c(nn1C(F)F)c(=O)n(-c1cccc3[nH]ncc13)c1nc(C(F)(F)F)ccc21
R: O=c1c2nn(C(F)F)cc2c2ccc(C(F)(F)F)nc2n1-c1cccc2[nH]ncc12
S: Cc1c2c(nn1C)c(=O)n(-c1cccnc1)c1nc(C(F)(F)F)ccc21
Incoming: # rank_down: sort by half-life, max first Please respond by ranking the labels in the order requested.
Outgoing: R, Q, S, P
(R: 18 h, Q: 5.79 h, S: 0.918 h, P: 0.47 h)

----------
Recorded measurements of pIC50, one per entry
system: SDMA in human colon cancer cell line HCT116; assay: Cell symmetric dimethylarginine (SDMA) test, In-cell Western, HCT116 (MTAP wild-type); format: cell-based; conditions: Homo sapiens, HCT-116, 96 h, IC50 score class, read-out: Cell 96 h SDMA Inhibition (HCT116-MTAP+/+) (score)
pIC50: −log10 of the molar value.

* NC(=O)CC1N=c2c(c3ccc(Cl)cc3n(-c3cccnc3)c2=O)=N1 (stereo not shown) | > 6.70
* CCn1cc2c(n1)c(=O)n(-c1cccnc1C)c1cc(Cl)ccc21 | 6.00 to 6.70
* Cn1cc2c(n1)c(=O)n(-c1cccnc1C1CC1)c1nc(C(F)(F)F)ccc21 (single isomer, unassigned) [Compound B213] | 6.00 to 6.70

Incoming: # get_value(readout= pIC50, system= SDMA in human colon cancer cell line HCT116) for Cn1cc2c(n1)c(=O)n(-c1cccc3[nH]ncc13)c1cc(Cl)ccc21
Outgoing: 6.00 to 6.70

Incoming: # get_value(readout= pIC50, system= SDMA in human colon cancer cell line HCT116) for Cn1cc2c(n1)c(=O)n(-c1ccc3cn[nH]c3c1)c1cc(Cl)ccc21
Outgoing: < 5.52

Incoming: # get_value(readout= pIC50, system= SDMA in human colon cancer cell line HCT116) for CCn1cc2c(n1)c(=O)n(-c1cnccc1C)c1cc(Cl)ccc21
Outgoing: < 5.52

Incoming: # get_value(readout= pIC50, system= SDMA in human colon cancer cell line HCT116) for Cn1cc2c(n1)c(=O)n(-c1cccc3[nH]nc(Cl)c13)c1cc(Cl)c(F)cc21
Outgoing: < 5.52

----------
test system: SDMA in HCT116-MTAP-knockout cell line; assay: Cell symmetric dimethylarginine (SDMA) test, In-cell Western, HCT116-MTAP-knockout; format: cell-based; settings: Homo sapiens, 96 h, IC50 score class, read-out: Cell 96 h SDMA Inhibition (HCT116-MTAP−/−) (score)
readout.label: IC50

* CCn1cc2c(n1)c(=O)n(-c1cccnc1C(F)(F)F)c1cc(Cl)ccc21 | < 0.2 µM

Incoming: # get_value(readout= IC50, system= SDMA in HCT116-MTAP-knockout cell line) for Cc1c2c(nn1C(F)F)c(=O)n(-c1cccnc1)c1nc(C(F)(F)F)ccc21
Outgoing: 0.2 to 1 µM

Incoming: # get_value(readout= IC50, system= SDMA in HCT116-MTAP-knockout cell line) for Cn1cc2c(n1)c(=O)n(-c1cccnc1)c1cc(C(F)(F)F)ccc21
Outgoing: < 0.2 µM

Incoming: # get_value(readout= IC50, system= SDMA in HCT116-MTAP-knockout cell line) for O=c1c2nn(C3CCOC3)cc2c2ccc(C(F)(F)F)nc2n1-c1cccnc1 (stereo not shown)
Outgoing: 1 to 3 µM

----------
test system: HCT116-MTAP wild-type (+/+)-cell strain; experiment: Tumor cell proliferation inhibition assay (CellTiter-Glo), HCT116-MTAP wild-type (+/+); type: cell-based; conditions: Homo sapiens, 120 h, HCT116-MTAP wild-type (+/+) cells, 5-day treatment, IC50 value, read-out: Tumor cell 5-day relative growth inhibition (HCT116-MTAP+/+)
readout.label: IC50

Incoming: Can you share its IC50? I mean this molecule: CCn1nc2c(=O)n(-c3cccnc3)c3cc(Cl)ccc3c2c1F [Compound B33]
Outgoing: > 2 µM

Incoming: Can you share its IC50? I mean this molecule: Cn1cc2c(n1)c(=O)n(-c1cccnc1C1CC1)c1cc(Cl)c(C#N)cc21 [Compound B348]
Outgoing: ≥ 10 µM

Incoming: Can you share its IC50? I mean this molecule: Cn1cc2c(n1)c(=O)n(-c1cccnc1C1CC1)c1nc(C3CC3)c(F)cc21 [Compound B359]
Outgoing: > 10 µM

Incoming: Can you share its IC50? I mean this molecule: Cc1cncc(-n2c(=O)c3nn(C)cc3c3ccc(C(F)(F)F)nc32)c1 [Compound B217]
Outgoing: > 2 µM

----------
system: SDMA in HCT116-MTAP-knockout cell line; experiment: Cell symmetric dimethylarginine (SDMA) test, In-cell Western, HCT116-MTAP-knockout; type: cell-based; settings: Homo sapiens, 96 h, IC50 score class, read-out: Cell 96 h SDMA Inhibition (HCT116-MTAP−/−) (score)
Recorded measurements of IC50, one per entry

The cases that follow already have their IC50 on record.
• Cn1cc2c(n1)c(=O)n(-c1cccnc1)c1cc(C3CC3)ccc21 = 200 to 1000 nM
• Cn1cc2c(n1)c(=O)n(-c1cccc3[nH]nc(Br)c13)c1cc(Cl)ccc21 = < 200 nM
• Cn1cc2c(n1)c(=O)n(-c1cccc3[nH]ncc13)c1nc(C(F)(F)F)c(C#N)cc21 = < 200 nM
• O=c1c2n[nH]cc2c2ccc(C(F)(F)F)nc2n1-c1cccc2[nH]ncc12 = < 200 nM
• Cn1cc2c(n1)c(=O)n(-c1cccc3[nH]nc(F)c13)c1cc(Cl)c(F)cc21 = < 200 nM
• CCn1cc2c(n1)c(=O)n(-c1cccc(F)c1)c1cc(Cl)ccc21 = 200 to 1000 nM
• Cc1ccc(-n2c(=O)c3nn(C)cc3c3ccc(C(F)(F)F)nc32)cn1 = 200 to 1000 nM
• Cn1cc2c(n1)c(=O)n(-c1cccnc1C1CC1)c1nc(C3CC3)c(F)cc21 = < 200 nM

Incoming: # get_value(readout= IC50, system= SDMA in HCT116-MTAP-knockout cell line) for Cc1ncccc1-n1c(=O)c2nn(C)cc2c2ccc(C(F)(F)F)nc21 [Compound B76]
Outgoing: < 200 nM

Incoming: # get_value(readout= IC50, system= SDMA in HCT116-MTAP-knockout cell line) for CCn1cc2c(n1)c(=O)n(-c1cccc(C#N)c1)c1cc(Cl)ccc21
Outgoing: 200 to 1000 nM

Incoming: # get_value(readout= IC50, system= SDMA in HCT116-MTAP-knockout cell line) for O=c1c2[nH]ncc2c2ccc(Cl)cc2n1-c1cccnc1
Outgoing: < 200 nM

Incoming: # get_value(readout= IC50, system= SDMA in HCT116-MTAP-knockout cell line) for Cn1cc2c(n1)c(=O)n(-c1cccc3[nH]nc(Br)c13)c1cc(Cl)c(F)cc21
Outgoing: < 200 nM

Incoming: # get_value(readout= IC50, system= SDMA in HCT116-MTAP-knockout cell line) for Cc1ncccc1-n1c(=O)c2n[nH]cc2c2ccc(C(F)(F)F)nc21
Outgoing: < 200 nM

Incoming: # get_value(readout= IC50, system= SDMA in HCT116-MTAP-knockout cell line) for Cc1c2c(nn1C(F)F)c(=O)n(-c1cccc3[nH]ncc13)c1nc(C(F)(F)F)ccc21
Outgoing: < 200 nM

Incoming: # get_value(readout= IC50, system= SDMA in HCT116-MTAP-knockout cell line) for Cn1cc2c(n1)c(=O)n(-c1cccc3[nH]ncc13)c1cc(C(F)(F)F)c(C#N)cc21
Outgoing: < 200 nM

Incoming: # get_value(readout= IC50, system= SDMA in HCT116-MTAP-knockout cell line) for CCn1cc2c(n1)c(=O)n(-c1cccnc1)c1nc(C(F)(F)F)ccc21
Outgoing: < 200 nM
